Source listed as patent US20210301025A1.

systemUnderTest: T1, human EGFR on cells (A431, NCI-H292, NCI-H322, NCI-H441) (human, UniProt P00533 25-1210)
T1 construct: Endogenous EGFR of human tumor cell lines; also called HER-1; Erb-B1
assayExplanation: A431 cell binding, anti-His-Alexa488 fluorescence
pEC50: −log10 of the molar value.
Each entry below carries its reported pEC50.
measurementLabel: pEC50

[[record]]
binder = "P54AR4-83 (designed binder, not shown: small tags and cut ends) LPAPKNLVVSEVTEDSLRLSWDDPWAFYESFLIQYQESEKVGEAINLTVPGSERSYDLTGLKPGTEYTVSIYGVHNVYKDTNMRGLPLSAEFTT"
measurementlabel = "pEC50"
valuereported = 8.66

[[record]]
binder = "P53A1R5-17 (designed binder, not shown: small tags and cut ends) LPAPKNLVVSEVTEDSLRLSWADPHGFYDSFLIQYQESEKVGEAINLTVPGSERSYDLTGLKPGTEYTVSIYGVHNVYKDTNMRGLPLSAEFTT"
measurementlabel = "pEC50"
valuereported = 8.40

